tested_on: ERα in MCF7 cells (Homo sapiens (Human), UniProt P03372)
Sequence (P03372 whole entry): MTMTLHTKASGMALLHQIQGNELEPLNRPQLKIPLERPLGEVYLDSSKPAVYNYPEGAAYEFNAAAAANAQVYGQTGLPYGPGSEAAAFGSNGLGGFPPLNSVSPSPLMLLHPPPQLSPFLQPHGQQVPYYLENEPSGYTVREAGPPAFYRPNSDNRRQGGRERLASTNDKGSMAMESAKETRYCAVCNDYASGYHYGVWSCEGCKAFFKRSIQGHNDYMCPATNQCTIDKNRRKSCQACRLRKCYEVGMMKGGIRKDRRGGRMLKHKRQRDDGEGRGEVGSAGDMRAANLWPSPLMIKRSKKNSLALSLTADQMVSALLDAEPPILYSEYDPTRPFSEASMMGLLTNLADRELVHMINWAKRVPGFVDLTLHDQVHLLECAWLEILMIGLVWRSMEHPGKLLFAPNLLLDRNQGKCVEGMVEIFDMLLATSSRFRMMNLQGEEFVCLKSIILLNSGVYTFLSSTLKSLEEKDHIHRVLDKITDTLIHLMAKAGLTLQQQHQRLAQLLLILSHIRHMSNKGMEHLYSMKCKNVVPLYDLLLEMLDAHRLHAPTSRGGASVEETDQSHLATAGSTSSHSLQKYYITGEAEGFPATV
test_summary: Test C: estrogen receptor degradation activity, ERα in cell western assay in MCF7 cells
Format: cell-based
condition_parameters: at 3 μM, 4 hours, relative to fulvestrant
Description: Test C: Estrogen Receptor Degradation Activity Test C involves measuring the in vitro degradation activity of the compounds of the invention. […] MCF7 cells (ATCC) were seeded in 384 wells microplate (collagen coated) at concentration of >9990 cells/30 μL per well in red phenol free MEM alpha medium (invitrogen) containing 5% charcoal dextran striped FBS. […] Integrated intensities in the green fluorescence and red fluorescence were measured to determine the levels of ERα and DNA respectively.
The following compounds are shown together with reported % Degradation at 3 μM values.
measure_name: % Degradation at 3 μM (%)

- Oc1ccc2c(c1)SCCC(c1ccc(Cl)cc1Cl)=C2c1ccc(O[C@H]2CCN(CCCF)C2)cc1 [Example 166]: 90
- Oc1ccc2c(c1)SCC(c1ccc(OC(F)(F)F)cc1F)=C2c1ccc(O[C@H]2CCN(CCCF)C2)cc1 [Example 37]: 83
- Cc1ccc(C2=C(c3ccc(O[C@H]4CCN(CCCF)C4)nc3)c3ccc(O)cc3CCC2)c(F)c1 [Example 237]: 92
- Cc1ccc(C2=C(c3cnc(O[C@H]4CCN(CCCF)C4)nc3)c3ccc(O)cc3CCC2)c(F)c1 [Example 244]: 92

---

tested_on: His6-ERα298-554 Y537S mutant (ERα ligand-binding domain) (Homo sapiens (Human), UniProt P03372, Y537S)
Sequence (P03372 298-554 Y537S): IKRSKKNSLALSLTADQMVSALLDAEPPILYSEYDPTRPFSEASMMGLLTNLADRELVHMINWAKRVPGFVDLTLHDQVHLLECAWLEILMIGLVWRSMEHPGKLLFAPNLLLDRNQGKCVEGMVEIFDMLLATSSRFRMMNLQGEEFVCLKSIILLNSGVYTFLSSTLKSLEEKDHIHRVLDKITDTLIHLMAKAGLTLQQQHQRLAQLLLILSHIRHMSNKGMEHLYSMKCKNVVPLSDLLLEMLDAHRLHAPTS
test_summary: Test A: biochemical antagonist activity, LanthaScreen TR-FRET ERα coactivator assay, Y537S mutant
condition_parameters: asterisk (*): protocol using 10 nM estradiol; read-out: Antagonism Y537S IC50
measure_name: IC50 (µM)

- Oc1ccc2c(c1F)CCCC(c1ccc(OC(F)F)c(F)c1)=C2c1ccc(O[C@H]2CCN(CCCF)C2)nc1: 0.014
- Oc1ccc2c(c1)SCCC(c1ccc(OC(F)F)c(F)c1)=C2c1ccc(O[C@H]2CCN(CCCF)C2)nc1: 0.006
- Oc1ccc2c(c1)SCCC(c1ccc(OC(F)(F)F)cc1)=C2c1ccc(O[C@H]2CCN(CCCF)C2)cc1: 0.457
- CC(C)(C)c1ccc(C2=C(c3ccc(O[C@H]4CCN(CCCF)C4)cc3)c3ccc(O)cc3SC2)cc1: 2.91
- COc1ccc(C2=C(c3ccc(O[C@H]4CCN(CCCF)C4)cc3)c3ccc(O)cc3SC2)c(F)n1: 0.014
- [2H]C([2H])([2H])Oc1ccc(C2=C(c3ccc(O[C@H]4CCN(CCCF)C4)cc3)c3ccc(O)cc3SC2)c(F)c1: 0.046
- CCOc1ccc(C2=C(c3ccc(O[C@H]4CCN(CCCF)C4)cc3)c3ccc(O)cc3SC2)c(F)c1F: 0.407
- CC(C)(O)c1ccc(C2=C(c3ccc(O[C@H]4CCN(CCCF)C4)cc3)c3ccc(O)cc3SC2)c(F)c1: 0.596
- Oc1ccc2c(c1)SCC(c1ccc(OC(F)F)cc1F)=C2c1ccc(O[C@H]2CCN(CCCF)C2)cc1: 0.22
- CCOc1cc(F)c(C2=C(c3ccc(O[C@H]4CCN(CCCF)C4)cc3)c3ccc(O)cc3SCC2)cc1F: 0.084
- CCOc1ccc(C2=C(c3ccc(O[C@H]4CCN(CCCF)C4)cc3)c3cc(F)c(O)cc3OCC2)c(C)c1: 0.228
- Oc1ccc2c(c1)SCCC(c1ccc(OC(F)(F)F)cc1F)=C2c1ccc(O[C@H]2CCN(CCCF)C2)cc1: 0.412
- CC1Cc2cc(C3=C(c4ccc(O[C@H]5CCN(CCCF)C5)cc4)c4ccc(O)cc4SCC3)ccc2O1 (stereo partly drawn): 0.013
- Oc1ccc2c(c1)SCC(c1ccc(O)nc1F)=C2c1ccc(O[C@H]2CCN(CCCF)C2)cc1: 0.059

---

The following compounds are shown together with reported % Degradation at 3 μM values.
tested_on: ERα in MCF7 cells (Homo sapiens (Human), UniProt P03372)
test_summary: Test C: estrogen receptor degradation activity, ERα in cell western assay in MCF7 cells
Type: cell-based
condition_parameters: at 3 μM, 4 hours, relative to fulvestrant
measure_name: % Degradation at 3 μM (%)

• Oc1ccc2c(c1)OCCC(c1ccc(OC3CC3)cc1)=C2c1ccc(O[C@H]2CCN(CCCF)C2)cc1 = 91
• O=S1(=O)CCC(c2ccc(Cl)cc2Cl)=C(c2ccc(O[C@H]3CCN(CCCF)C3)cc2)c2ccc(O)cc21 = 96
• Oc1ccc2c(c1)SCC(c1ccc(Cl)nc1Cl)=C2c1ccc(O[C@H]2CCN(CCCF)C2)cc1 = 84
• [2H]C([2H])([2H])Oc1ccc(C2=C(c3ccc(O[C@H]4CCN(CCCF)C4)cc3)c3ccc(O)cc3SC2)c(F)c1 = 85
• Oc1ccc2c(c1)OCCC(c1ccc3cc[nH]c3c1)=C2c1ccc(O[C@H]2CCN(CCCF)C2)cc1 = 89
• Cc1ccc(C2=C(c3ccc(O[C@H]4CCN(CCCF)C4)cc3)c3ccc(O)cc3SC2)c(F)c1 = 90
• Oc1ccc2c(c1)C(c1ccc(O[C@H]3CCN(CCCF)C3)cc1)=C(c1ccc(OC(F)(F)F)cc1Cl)CC2 = 82
• Cc1cc2c(cc1O)OCCC(c1cccc(O)c1)=C2c1ccc(O[C@H]2CCN(CCCF)C2)cc1 = 79
• Oc1ccc2c(c1)SCC(c1ccc(OCF)cc1)=C2c1ccc(O[C@H]2CCN(CCCF)C2)cc1 = 73
• CS(=O)(=O)c1ccc(C2=C(c3ccc(O[C@H]4CCN(CCCF)C4)cc3)c3ccc(O)cc3SCC2)cc1 = 89
• Oc1ccc2c(c1)CCCC(c1ccc(OC(F)(F)F)cc1)=C2c1ccc(O[C@H]2CCN(CCCF)C2)nc1 = 85
• Oc1ccc2c(c1)OCCC(c1ccc3c(c1)CCO3)=C2c1ccc(O[C@H]2CCN(CCCF)C2)cc1 = 90
• Oc1ccc2c(c1)SCCC(c1ccc(OCF)cc1)=C2c1ccc(O[C@H]2CCN(CCCF)C2)cc1 = 78
• CCOc1ccc(C2=C(c3ccc(O[C@H]4CCN(CCCF)C4)cc3)c3ccc(O)cc3SC2)c(F)c1Cl = 86
• Oc1ccc2c(c1)C(c1ccc(O[C@H]3CCN(CCCF)C3)cc1)=C(C1=CCOCC1)CC2 = 80

---

tested_on: His6-ERα298-554 D538G mutant (ERα ligand-binding domain) (Homo sapiens (Human), UniProt P03372, D538G)
Sequence (P03372 298-554 D538G): as the sequence (P03372 298-554 Y537S) above, with S240Y, D241G counted along it
test_summary: Test A: biochemical antagonist activity, LanthaScreen TR-FRET ERα coactivator assay, D538G mutant
condition_parameters: protocol with 3 nM estradiol; read-out: Antagonism D538G IC50
The following compounds are shown together with reported log10 of IC50 values.
measure_name: log10 of IC50 (log10 of the value in nM)

• Oc1ccc2c(c1Cl)OCCC(c1ccc3[nH]ccc3c1)=C2c1ccc(O[C@H]2CCN(CCCF)C2)cc1 [Example 114] = 2.25
• Oc1ccc2c(c1)SCC(c1ccc(F)cc1Cl)=C2c1ccc(O[C@H]2CCN(CCCF)C2)cc1 [Example 22] = 1.43
• Oc1ccc2c(c1)OCCC(c1cccc3[nH]ccc13)=C2c1ccc(O[C@H]2CCN(CCCF)C2)cc1 [Example 110] = 1.59
• Cc1ccc(C2=C(c3ccc(O[C@H]4CCN(CCCF)C4)cc3)c3ccc(O)cc3SCC2)c(F)c1 [Example 164] = 1.11
• Cc1cc(C2=C(c3ccc(O[C@H]4CCN(CCCF)C4)cc3)c3ccc(O)cc3SCC2)ccc1Cl [Example 162] = 1.38
• Oc1ccc2c(c1)C(c1ccc(O[C@H]3CCN(CCCF)C3)cc1)=C(c1ccc(F)c(Cl)c1)CCS2 [Example 174] = 2.63
• CC1(C)Cc2cc(C3=C(c4ccc(O[C@H]5CCN(CCCF)C5)cc4)c4ccc(O)cc4SCC3)ccc2N1 [Example 198] = 0.90
• Cc1ccc(C2=C(c3ccc(O[C@H]4CCN(CCCF)C4)cc3)c3ccc(O)c(Cl)c3OCC2)c(F)c1 [Example 108] = 2.34
• Oc1ccc(C2=C(c3ccc(O[C@H]4CCN(CCCF)C4)cc3)c3ccc(O)cc3SCC2)c(F)c1 [Example 169] = 0.70
• Oc1ccc2c(c1)SCCC(c1ccc(F)c(OC(F)F)c1)=C2c1ccc(O[C@H]2CCN(CCCF)C2)cc1 [Example 188] = 2.42
• CCOc1ccc(C2=C(c3ccc(O[C@H]4CCN(CCCF)C4)cc3)c3ccc(O)cc3SCC2)cc1F [Example 185] = 2.02
• CCOc1ccc(C2=C(c3ccc(O[C@H]4CCN(CCCF)C4)cc3)c3ccc(O)cc3OCC2)cn1 [Example 127] = 1.69
• Oc1ccc2c(c1)SCC(c1ccc3c(c1)OC(F)(F)O3)=C2c1ccc(O[C@H]2CCN(CCCF)C2)cc1 [Example 31] = 2.00
• Cc1ccc(C2=C(c3ccc(O[C@H]4CCN(CCCF)C4)cc3)c3cc(Cl)c(O)cc3OCC2)c(F)c1 [Example 145] = 3.60
• Oc1ccc2c(c1)SCC(c1ccc(OC(F)(F)F)cc1F)=C2c1ccc(O[C@H]2CCN(CCCF)C2)cc1 [Example 37] = 2.87
